# assay info: enhancers of glutamate uptake in motor neurons, MN-1 cell line (AID 1612);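 further: tested at 1 µM final; 0% = mean of DMSO vehicle wells on each plate; positive means more glutamate uptake than control and negative means less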
# study conditions: MN-1 motor neuron cells, stronger effect = higher value
Field: glutamate uptake change. Provide a value for each of the molecules that follow.
Numbers only here, please. The scale is %.

Q. For the molecule CC[C@H](C)C(=O)O[C@H]1CCC=C2C=C[C@H](C)C(CCC3C[C@@H](O)CC(=O)O3)[C@H]21 (stereo partly specified) , what glutamate uptake change is on record?
A. 12.1

Q. Which measured glutamate uptake change value corresponds to CC(=O)[C@@]1(O)CCC2C3C[C@H](C)C4=CC(=O)C=CC4(C)[C@@]3(F)[C@@H](O)C[C@@]21C (stereo partly specified) ?
A. 25.3

Q. Which value of glutamate uptake change has been reported for CO[C@H]1C[C@H](O[C@H]2[C@H](C)[C@@H](OC3O[C@H](C)C[C@H](N(C)C)[C@H]3O)[C@@H](C)C[C@]3(CO3)C(=O)[C@H](C)[C@@H](O)[C@@H](C)[C@@H](C)OC(=O)[C@@H]2C)O[C@@H](C)[C@@H]1O (stereo partly specified) in the records?
A. 5.06

Q. State the recorded glutamate uptake change for this entry: C[C@H](CCC(=O)O)[C@H]1CCC2C3C(CC[C@@]21C)[C@@]1(C)CC[C@@H](O)C[C@H]1C[C@@H]3O (stereo partly specified)
A. -4.34

Q. Looking for the measured glutamate uptake change of C=C(C)[C@H]1CC=C(C(=O)O)CC1 , can you help?
A. -7.46

Q. Fill in the blank: the reported glutamate uptake change of NC(Cc1cc(I)c(Oc2ccc(O)c(I)c2)c(I)c1)C(=O)O (stereo unspecified) is ____.
A. -8.22

Q. Which glutamate uptake change is listed for C[C@]12CCC(=O)C=C1CCC1C2[C@@H](O)C[C@@]2(C)C1CC[C@]2(O)C(=O)CO (stereo partly specified) ?
A. 10.6

Q. Looking for the measured glutamate uptake change of C/C=C/CC(C)C(O)C1C(=O)NC(CC)C(=O)N(C)CC(=O)N(C)C(CC(C)C)C(=O)NC(C(C)C)C(=O)N(C)C(CC(C)C)C(=O)NC(C)C(=O)NC(C)C(=O)N(C)C(CC(C)C)C(=O)N(C)C(CC(C)C)C(=O)N(C)C(C(C)C)C(=O)N1C (stereo unspecified) , can you help?
A. -28.6

Q. Give its glutamate uptake change value. Item: COc1ccc(C2Sc3ccccc3N(CCN(C)C)C(=O)C2OC(C)=O)cc1 (stereo unspecified)
A. 4.81

Q. Give the measured glutamate uptake change of OC(c1cc(C(F)(F)F)nc2c(C(F)(F)F)cccc12)C1CCCCN1 (stereo unspecified) .
A. -3.13

Q. GET /values?readout=glutamate uptake change&item= CN(C)CCCO[C@H]1[C@@H](C(O)CO)OC2OC(C)(C)O[C@@H]21 (stereo partly specified)
A. -4

Q. What value of glutamate uptake change has been reported for the following molecule? C[N+]1(C)C2CC[C@H]1CC(OC(=O)C(O)c1ccccc1)C2 (stereo partly specified)
A. -16.5

Q. I'd like to know its glutamate uptake change. The molecule in question is C#C[C@]1(OC(C)=O)CCC2C3CCC4=CC(=O)CC[C@@H]4C3CC[C@@]21C (stereo partly specified)
A. 12.7

Q. Item CC(=O)OCC(=O)[C@H]1CCC2C3CCC4=CC(=O)CC[C@]4(C)C3CC[C@@]21C (stereo partly specified) has what recorded glutamate uptake change?
A. 23

Q. Item under review: CO[C@@]12[C@@H]3NC3CN1C1=C(C(=O)C(N)=C(C)C1=O)[C@@H]2COC(N)=O (stereo partly specified) . Reported glutamate uptake change?
A. 0.5

Q. What value of measured glutamate uptake change is listed for CC(=O)OCC(=O)[C@@]1(O)CCC2C3CCC4=CC(=O)C=CC4(C)C3[C@@H](O)C[C@@]21C (stereo partly specified) ?
A. 16.1
